# targetSystem: Calmodulin-1 (Homo sapiens) (UniProt P0DP23)
# protocolDetails: calcium-bound CALM1 binders on microarrays, profiling panel, artefact control for SMM control-protein annotation, biochemical, small-molecule microarray, Cy5-labelled CALM1, plus calcium (AID 1112);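 note: score merges spot fluorescence with signal to noise from triplicate slides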
# conditionSet: Cy5-CALM1 binding fluorescence, higher = more signal
Rule: composite z-score of -0.4 or more gives Fulfilled; anything lower gives Not fulfilled.

Record excerpt, results attached:
> print(dat)
                            structurestring  assignedcategory
1  CCc1cc2c(nc1CC)CCN(CCC(C)=NOC[C@H]1O[C@H](c3ccccc3)C=C[C@@H]1Oc1ccc(OC)cc1)C2         Fulfilled
2      CC=CC1=C(CO)C(=O)[C@@H]2O[C@@H]2C1=O     Not fulfilled
3  C#CCCCON=C1C[C@@H](O)[C@@H](O)[C@@H]2[C@@H]3C(=O)N(c4cccc(Oc5ccccc5)c4)C(=O)[C@@H]3CC[C@H]12         Fulfilled
4  CC(C)=CCCC(C)=CCON=C1C[C@@H](O)[C@@H](O)[C@@H]2[C@@H]3C(=O)N(c4cccc(Oc5ccccc5)c4)C(=O)[C@@H]3CC[C@@H]12         Fulfilled
5  CO[C@@H]1COC(=O)[C@@H]2CCCN2C(=O)[C@@H](C)COC(=O)CC=C[C@H]1C     Not fulfilled

Task: Determine whether this molecule has composite z-score no lower than -0.4: `CCCNC(=O)OC[C@H]1O[C@H](CCON=C(C)C)C=C[C@@H]1Oc1ccc(OC)cc1`
Output: Fulfilled

Task: What do you have for `O=C1C[C@@H](O)[C@@H](O)[C@@H]2[C@@H]3C(=O)N(Cc4ccccc4)C(=O)[C@@H]3CC[C@@H]12` ?
Output: Not fulfilled

Task: What do you have for `CCOC(=O)NN=C1C[C@@H](O)[C@@H](O)[C@@H]2[C@@H]3C(=O)N([C@@H](C)c4ccccc4)C(=O)[C@@H]3CC[C@@H]12` ?
Output: Not fulfilled
